All values here come from patent US6887896B1.

# Assayed system: RXRγ (UniProt P28705)
# Sequence (P28705 1-463): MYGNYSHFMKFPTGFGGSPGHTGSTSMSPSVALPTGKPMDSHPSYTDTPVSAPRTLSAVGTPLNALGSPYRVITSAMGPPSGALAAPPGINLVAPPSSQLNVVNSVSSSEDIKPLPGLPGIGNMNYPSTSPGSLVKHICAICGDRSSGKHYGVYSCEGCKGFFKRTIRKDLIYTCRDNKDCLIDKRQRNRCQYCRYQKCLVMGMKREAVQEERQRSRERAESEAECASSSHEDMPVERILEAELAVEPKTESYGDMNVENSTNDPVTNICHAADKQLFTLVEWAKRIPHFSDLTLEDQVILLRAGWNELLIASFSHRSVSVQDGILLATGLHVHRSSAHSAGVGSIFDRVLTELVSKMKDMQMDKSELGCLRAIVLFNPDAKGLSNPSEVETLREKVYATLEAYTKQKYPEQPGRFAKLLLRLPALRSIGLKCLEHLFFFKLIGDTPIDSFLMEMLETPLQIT
# Test method notes: holoreceptor transactivation assay, RXRγ
# Type: cell-based
# Measurement context: percentage compared to the standard compound
If the reported RXR Trans. efficacy (number in parentheses) γ equals or exceeds 60%, assign 1 (yes). If not, assign 0 (no).

INSERT INTO measurements (record_smiles, assayed_system, class_label) VALUES
  ('CCOc1c(\C(CC)=C(F)/C=C/C(C)=C/C(=O)O)cc2c(c1Cl)OC(C)(C)C=C2C(C)C', 'RXRγ (UniProt P28705)', '0 (no)'),
  ('CCOc1c(\C(=C/C=C/C(C)=C/C(=O)O)CC)cc2c(c1Cl)OC(C)(C)C=C2C(C)C', 'RXRγ (UniProt P28705)', '0 (no)'),
  ('CC(/C=C/C(F)=C(/C)c1cc2c(c(Cl)c1OC(C)C)OC(C)(C)C=C2C(C)C)=C\C(=O)O', 'RXRγ (UniProt P28705)', '0 (no)'),
  ('COc1c(\C(C)=C(F)/C=C/C(C)=C/C(=O)O)cc2c(c1Cl)OC(C)(C)C=C2C(C)C', 'RXRγ (UniProt P28705)', '1 (yes)'),
  ('COc1cc2c(cc1\C(C)=C(F)/C=C/C(C)=C/C(=O)O)C(C(C)(C)C)=CC(C)(C)O2', 'RXRγ (UniProt P28705)', '0 (no)'),
  ('CCOc1cc2c(cc1\C(C)=C/C=C/C(C)=C/C(=O)O)C(C(C)(C)C)=CCC2(C)C', 'RXRγ (UniProt P28705)', '1 (yes)'),
  ('COc1c(\C(C)=C/C=C/C(C)=C/C(=O)O)cc2c(c1Cl)OC(C)(C)C=C2C(C)C', 'RXRγ (UniProt P28705)', '1 (yes)');

---

EC50 overview
# Assayed system: RARβ (Homo sapiens, UniProt P10826)
# Sequence (P10826 183-417 limits assumed): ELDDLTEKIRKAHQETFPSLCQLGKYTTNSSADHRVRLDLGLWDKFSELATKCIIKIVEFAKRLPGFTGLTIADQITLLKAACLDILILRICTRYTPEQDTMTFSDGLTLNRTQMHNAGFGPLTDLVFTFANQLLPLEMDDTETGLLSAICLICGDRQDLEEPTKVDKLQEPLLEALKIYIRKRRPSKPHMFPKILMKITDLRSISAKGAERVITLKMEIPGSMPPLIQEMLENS
# Test method notes: chimeric receptor transactivation assay, RARβ
# Measurement context: chimeric receptor transactivation; read-out: RAR Trans. EC50 β
Metric: EC50 (nM)

INSERT INTO measurements (molecule, measured_result) VALUES
  ('CCOc1cc2c(cc1\C(C)=C(F)/C=C/C(C)=C/C(=O)O)C(C(C)C)=CCC2(C)C [Compound A-79]', 829),
  ('CCOc1cc2c(cc1\C(CC)=C(F)/C=C/C(C)=C/C(=O)O)C(C(C)(C)C)=CCC2(C)C [Compound A-83]', 31),
  ('CC/C(=C/C=C/C(C)=C/C(=O)O)c1cc2c(cc1OC)OC(C)(C)C=C2C(C)C [Compound 44]', 75),
  ('CC/C(=C(F)/C=C/C(C)=C/C(=O)O)c1cc2c(c(Cl)c1OC)OC(C)(C)C=C2C(C)C [Compound 171]', 49),
  ('CCOc1cc2c(cc1\C(C)=C(F)/C=C/C(C)=C/C(=O)O)C(C)=CCC2(C)C', 316),
  ('CCOc1cc2c(cc1\C(=C/C=C/C(C)=C/C(=O)O)CC)C(C)=CCC2(C)C [Compound A-16]', 242);
